Provide the reported pKi of each item.
- experimental system: Sodium- and chloride-dependent GABA transporter 1 (Mus musculus, UniProt P31648)
- test method notes: Inhibition of NO711 binding to mouse GAT1 expressed in human HEK293 cell line by MS binding assay
Numbers only.

Examples with their reported pKi follow.
>  <compound>
CN(CCC=C1c2ccccc2CCc2ccccc21)C(CCN)C(=O)NCc1ccc(Cl)cc1 (stereo not drawn)

>  <pKi>
4.6

$$$$
>  <compound>
CN(CCC=C1c2ccccc2CCc2ccccc21)C(CCN)C(=O)NCc1ccc(F)cc1 (stereo not drawn)

>  <pKi>
4.96

$$$$
>  <compound>
CN(CCC=C1c2ccccc2CCc2ccccc21)C(CCN)C(=O)NCc1ccccc1Cl (stereo not drawn)

>  <pKi>
4.87

$$$$
>  <compound>
Cc1ccc(CNC(=O)C(CCN)N(C)CCC=C2c3ccccc3CCc3ccccc32)cc1 (stereo not drawn)

>  <pKi>
5.14

$$$$

// each listed compound needs a value for pKi
1. Cc1ccsc1C(=CCCN1CCC[C@@H](C(=O)O)C1)c1sccc1C
2. CN(CCC=C1c2ccccc2CCc2ccccc21)C(CCN)C(=O)NCc1ccccc1 (stereo not drawn)
3. CN(CCC=C(c1ccccc1)c1ccccc1)C(CCN)C(=O)NCc1ccccc1Cl (stereo not drawn)
4. O=C(O)C1=CCCN(CCO/N=C/c2ccccc2-c2ccc(Cl)cc2Cl)C1

1: 7.43; 2: 4.78; 3: 4.96; 4: 8.29

----------
Provide the reported pIC50 of each item.
- experimental system: GABA transporter 2 (Mus musculus, UniProt P31651)
- Sequence (P31651 whole entry): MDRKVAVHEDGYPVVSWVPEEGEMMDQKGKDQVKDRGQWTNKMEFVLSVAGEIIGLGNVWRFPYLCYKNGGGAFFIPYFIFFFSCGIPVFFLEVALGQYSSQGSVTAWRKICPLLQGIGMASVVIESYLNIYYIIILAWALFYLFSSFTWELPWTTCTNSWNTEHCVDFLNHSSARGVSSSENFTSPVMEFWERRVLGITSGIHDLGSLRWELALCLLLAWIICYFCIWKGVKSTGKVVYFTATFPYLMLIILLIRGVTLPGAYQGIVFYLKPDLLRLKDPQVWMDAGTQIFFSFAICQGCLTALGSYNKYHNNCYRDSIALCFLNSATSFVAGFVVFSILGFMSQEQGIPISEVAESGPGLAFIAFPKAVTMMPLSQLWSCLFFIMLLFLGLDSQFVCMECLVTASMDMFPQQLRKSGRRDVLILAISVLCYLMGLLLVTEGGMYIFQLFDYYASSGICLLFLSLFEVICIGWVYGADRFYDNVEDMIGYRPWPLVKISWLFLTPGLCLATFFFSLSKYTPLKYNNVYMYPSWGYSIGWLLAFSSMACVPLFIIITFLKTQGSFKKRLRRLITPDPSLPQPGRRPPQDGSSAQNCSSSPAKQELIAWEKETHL
- test method notes: Inhibition of mouse GAT2 expressed in human HEK293 cell line assessed as inhibition of [3H]GABA uptake measured after 40 mins by […]
Numbers only, as −log10 of the molar value.

>  <compound>
Cc1ccc(CNC(=O)C(CCO)N(C)CCC=C2c3ccccc3C=Cc3ccccc32)cc1 (stereo not drawn)

>  <numeric value>
5.01

$$$$

// each listed compound needs a value for pIC50
1. CN(CCC=C1c2ccccc2CCc2ccccc21)C(CCN)C(=O)NCc1ccc(Cl)cc1 (stereo not drawn)
2. CN(CCC=C1c2ccccc2C=Cc2ccccc21)C(CCO)C(=O)NCc1ccccc1 (stereo not drawn)
3. CN(CCC=C1c2ccccc2CCc2ccccc21)C(CCO)C(=O)NCc1ccc(Cl)cc1 (stereo not drawn)

[4.96, 4.81, 5.11]

----------
- experimental system: Sodium- and chloride-dependent GABA transporter 1 (Mus musculus)
- test method notes: Inhibition of mouse GAT1 expressed in human HEK293 cell line assessed as inhibition of [3H]GABA uptake measured after 40 mins by […]
- Type: cell-based
Provide the reported pIC50 of each item.
Give bare numbers, as −log10 of the molar value.

Examples with their reported pIC50 follow.
>  <molecule>
CC(=O)NCCC(C(=O)NCc1ccccc1Cl)N(C)CCC=C1c2ccccc2CCc2ccccc21 (stereo not given)

>  <experimental system>
Sodium- and chloride-dependent GABA transporter 1 (Mus musculus)

>  <pIC50>
4.54

$$$$
>  <molecule>
Cc1ccc(CNC(=O)C(CCN)N(C)CCC=C2c3ccccc3CCc3ccccc32)cc1 (stereo not given)

>  <experimental system>
Sodium- and chloride-dependent GABA transporter 1 (Mus musculus)

>  <pIC50>
5.14

$$$$
>  <molecule>
CN(CCC=C1c2ccccc2CCc2ccccc21)C(CCN)C(=O)NCc1ccc(F)cc1 (stereo not given)

>  <experimental system>
Sodium- and chloride-dependent GABA transporter 1 (Mus musculus)

>  <pIC50>
5.20

$$$$
>  <molecule>
CN(CCC=C1c2ccccc2CCc2ccccc21)C(CCN)C(=O)NCc1ccccc1 (stereo not given)

>  <experimental system>
Sodium- and chloride-dependent GABA transporter 1 (Mus musculus)

>  <pIC50>
5.09

$$$$
>  <molecule>
Cc1ccc(CNC(=O)C(CCO)N(C)CCC=C2c3ccccc3C=Cc3ccccc32)cc1 (stereo not given)

>  <experimental system>
Sodium- and chloride-dependent GABA transporter 1 (Mus musculus)

>  <pIC50>
4.56

$$$$

// each listed molecule needs a value for pIC50
1. CC(=O)NCCC(C(=O)NCc1ccc(Cl)cc1)N(C)CCC=C1c2ccccc2CCc2ccccc21 (stereo not given)
2. CC(=O)NCCC(C(=O)NCc1ccccc1)N(C)CCC=C1c2ccccc2CCc2ccccc21 (stereo not given)
3. Cc1ccc(CNC(=O)C(CCO)N(C)CCC=C2c3ccccc3CCc3ccccc32)cc1 (stereo not given)
4. CN(CCC=C1c2ccccc2-c2ccccc21)C(CCO)C(=O)NCc1ccccc1 (stereo not given)
5. COc1ccc(C(OCCN2CCC[C@H](C(=O)O)C2)(c2ccc(OC)cc2)c2ccc(-c3ccc(C=O)cc3)cc2)cc1
6. CN(CCC=C1c2ccccc2C=Cc2ccccc21)C(CCO)C(=O)NCc1ccc(Cl)cc1 (stereo not given)

4.55
4.54
4.85
4.62
4.14
4.16

----------
Provide the reported IC50 of each item.
- experimental system: UniProtKB P31650
- Sequence (P31650 whole entry): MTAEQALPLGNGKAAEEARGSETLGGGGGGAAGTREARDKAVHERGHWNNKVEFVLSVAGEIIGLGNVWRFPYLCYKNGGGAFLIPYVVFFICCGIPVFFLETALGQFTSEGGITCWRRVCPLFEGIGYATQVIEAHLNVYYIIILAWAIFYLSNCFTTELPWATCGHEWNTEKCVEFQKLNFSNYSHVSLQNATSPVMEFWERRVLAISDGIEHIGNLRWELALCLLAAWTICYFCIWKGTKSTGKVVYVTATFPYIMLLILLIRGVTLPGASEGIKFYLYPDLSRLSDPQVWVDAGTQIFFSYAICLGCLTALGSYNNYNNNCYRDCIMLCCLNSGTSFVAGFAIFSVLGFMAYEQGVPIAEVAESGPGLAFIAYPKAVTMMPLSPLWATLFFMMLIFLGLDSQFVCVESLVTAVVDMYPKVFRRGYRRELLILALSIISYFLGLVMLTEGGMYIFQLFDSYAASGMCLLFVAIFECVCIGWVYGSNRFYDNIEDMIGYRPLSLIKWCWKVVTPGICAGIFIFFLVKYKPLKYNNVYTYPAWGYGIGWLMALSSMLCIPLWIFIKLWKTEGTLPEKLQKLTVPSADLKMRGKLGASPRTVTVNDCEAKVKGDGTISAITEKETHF
- test method notes: Inhibition of mouse GAT4 expressed in human HEK293 cell line assessed as inhibition of [3H]GABA uptake measured after 40 mins by […]
Provide the measurement as a number trailed by its unit.

>  <compound>
CN(CCC=C1c2ccccc2C=Cc2ccccc21)C(CCO)C(=O)NCc1ccccc1 (stereo not given)

>  <experimental system>
UniProtKB P31650

>  <IC50>
9.55 µM

$$$$

// each listed compound needs a value for IC50
1. Cc1ccc(CNC(=O)C(CCO)N(C)CCC=C2c3ccccc3C=Cc3ccccc32)cc1 (stereo not given)
2. CN(CCC=C1c2ccccc2C=Cc2ccccc21)C(CCO)C(=O)NCc1ccccc1Cl (stereo not given)
3. CN(CCC=C1c2ccccc2CCc2ccccc21)C(CCO)C(=O)NCc1ccc(F)cc1 (stereo not given)
4. CN(CCC=C1c2ccccc2CCc2ccccc21)C(CCO)C(=O)NCc1ccccc1 (stereo not given)

1. 9.12 µM
2. 9.55 µM
3. 13.2 µM
4. 17 µM

----------
- experimental system: Sodium- and chloride-dependent GABA transporter 1 (Mus musculus)
- test method notes: Residual NO711 binding to mouse GAT1 expressed in human HEK293 cell line at 100 uM by MS binding assay relative to control
metric name: residual activity (%)
Answers are plain numbers, in %.

// each listed compound needs a value for residual activity
1. COc1ccc(C(OCCN2CCC[C@H](C(=O)O)C2)(c2ccc(OC)cc2)c2ccc(-c3ccc(C=O)cc3)cc2)cc1
2. CN(CCC=C1c2ccccc2-c2ccccc21)C(CCO)C(=O)NCc1ccc(Cl)cc1 (configuration not stated)
3. CN(CCC=C1c2ccccc2CCc2ccccc21)C(CCO)C(=O)NCc1ccccc1Cl (configuration not stated)
4. CN(CCC=C1c2ccccc2C=Cc2ccccc21)C(CCO)C(=O)NCc1ccccc1Cl (configuration not stated)

1: 77; 2: 91; 3: 82; 4: 69

// each listed compound needs a value for residual activity
1. CN(CCC=C1c2ccccc2C=Cc2ccccc21)C(CCO)C(=O)NCc1ccc(Cl)cc1 (configuration not stated)
2. CC(=O)NCCC(C(=O)NCc1ccc(C)cc1)N(C)CCC=C1c2ccccc2CCc2ccccc21 (configuration not stated)
3. CN(CCC=C1c2ccccc2CCc2ccccc21)C(CCO)C(=O)NCc1ccc(Cl)cc1 (configuration not stated)
4. CC(=O)NCCC(C(=O)NCc1ccc(Cl)cc1)N(C)CCC=C1c2ccccc2CCc2ccccc21 (configuration not stated)
5. CN(CCC=C1c2ccccc2-c2ccccc21)C(CCO)C(=O)NCc1ccc(F)cc1 (configuration not stated)
6. CN(CCC=C1c2ccccc2CCc2ccccc21)C(CCO)C(=O)NCc1ccccc1 (configuration not stated)
7. CC(=O)NCCC(C(=O)NCc1ccccc1Cl)N(C)CCC=C1c2ccccc2CCc2ccccc21 (configuration not stated)

1. 63
2. 69
3. 79
4. 90
5. 90
6. 51
7. 87

// each listed compound needs a value for residual activity
1. CN(CCC=C1c2ccccc2-c2ccccc21)C(CCO)C(=O)NCc1ccccc1 (configuration not stated)
2. CN(CCC=C1c2ccccc2C=Cc2ccccc21)C(CCO)C(=O)NCc1ccc(F)cc1 (configuration not stated)
3. CN(CCC=C1c2ccccc2C=Cc2ccccc21)C(CCO)C(=O)NCc1ccccc1 (configuration not stated)
4. Cc1ccc(CNC(=O)C(CCO)N(C)CCC=C2c3ccccc3-c3ccccc32)cc1 (configuration not stated)
5. Cc1ccc(CNC(=O)C(CCO)N(C)CCC=C2c3ccccc3CCc3ccccc32)cc1 (configuration not stated)
6. CC(=O)NCCC(C(=O)NCc1ccccc1)N(C)CCC=C1c2ccccc2CCc2ccccc21 (configuration not stated)
7. CC(=O)NCCC(C(=O)NCc1ccc(F)cc1)N(C)CCC=C1c2ccccc2CCc2ccccc21 (configuration not stated)
8. CN(CCC=C1c2ccccc2CCc2ccccc21)C(CCO)C(=O)NCc1ccc(F)cc1 (configuration not stated)

1: 75; 2: 71; 3: 75; 4: 99; 5: 53; 6: 77; 7: 71; 8: 81

// each listed compound needs a value for residual activity
1. CN(CCC=C(c1ccccc1)c1ccccc1)C(CCO)C(=O)NCc1ccccc1Cl (configuration not stated)
2. Cc1ccc(CNC(=O)C(CCO)N(C)CCC=C2c3ccccc3C=Cc3ccccc32)cc1 (configuration not stated)
3. CN(CCC=C1c2ccccc2-c2ccccc21)C(CCO)C(=O)NCc1ccccc1Cl (configuration not stated)

1: 54; 2: 55; 3: 93
